Test system: CCNK
Assay: CCNK degradation (DC50, Dmax)
Type: cell-based
Details: CCNK degradation
Use 80% as the dividing line for Dmax (%), with the line itself on the t side and lower values as f.

{"columns": ["compound", "category"],
 "data": [
  ["Clc1cc2nc(CNc3cc(N4CCOCC4)nn4c(-c5cnn(C6CC6)c5)cnc34)[nH]c2cc1Cl", "f"],
  ["NC1CCN(c2cc(NCc3nc4cc(Cl)c(Cl)cc4[nH]3)c3ncc(-c4cnn(C(F)F)c4)n3n2)C1 (centres unmarked)", "t"],
  ["CN1CCN(c2cc(NCc3nc4cc(Cl)c(Cl)cc4[nH]3)c3ncc(-c4csc(C#N)c4)n3n2)CC1", "f"],
  ["CC(C)n1cc(-c2cnc3c(NCc4nc5cc(Cl)c(Cl)cc5[nH]4)cc(N4CCOCC4)nn23)cn1", "f"]
]}

Next item in the queue.
Request: Is the recorded value of Dmax (%) equal to or greater than 80% for this compound? Cn1cc(-c2cnc3c(NCc4nc5cc(Cl)c(Cl)cc5[nH]4)cc(N4CCOCC4)nn23)cn1
Result: t

----------
System: CCNK
Assay: CCNK degradation (DC50, Dmax)
Assay type: cell-based
Details: CCNK degradation
assay.endpoint: Dmax (%)

Solved cases below.
{"columns": ["compound", "assay.endpoint", "reported.value"],
 "data": [
  ["CN1CCN(c2cc(NCc3nc4cc(Cl)c(Cl)cc4[nH]3)c3ncc(-c4cnn(C)c4)n3n2)CC1 [Cmpd 8]", "Dmax (%)", "100%"],
  ["CN1CCN(c2cc(NCc3nc4c(F)cccc4[nH]3)c3ncc(-c4cnn(C(F)F)c4)n3n2)CC1 [Cmpd 51]", "Dmax (%)", "50%"],
  ["CN1CCN(c2cc(NCc3nc4cccc(Cl)c4[nH]3)c3ncc(-c4cnn(C5CC5)c4)n3n2)CC1 [Cmpd 32]", "Dmax (%)", "50%"],
  ["Cc1ccnc2[nH]c(CNc3cc(N4CCN(C)CC4)nn4c(-c5cnn(C)c5)cnc34)nc12 [Cmpd 11]", "Dmax (%)", "60%"],
  ["Cc1ccnc2[nH]c(CNc3cc(N4CCOCC4)nn4c(-c5ccsc5)cnc34)nc12 [Cmpd 76]", "Dmax (%)", "75%"]
]}

Entry under test: CC(C)n1cc(-c2cnc3c(NCc4nc5c(F)cccc5[nH]4)cc(N4CCOCC4)nn23)cn1 [Cmpd 27] . Its Dmax (%) was 50%

// Dmax (%) lookup, compound = CC(C)n1cc(-c2cnc3c(NCc4nc5cccc(Cl)c5[nH]4)cc(N4CCOCC4)nn23)cn1 [Cmpd 18] , result: 70%

Lab note: measured Dmax (%) of Cc1ccnc2[nH]c(CNc3cc(N4CCN(C)CC4)nn4c(-c5cnn(C(F)F)c5)cnc34)nc12 [Cmpd 57] was 65%

Dmax (%) measured on FC(F)n1cc(-c2cnc3c(NCc4nc5cc(Cl)c(Cl)cc5[nH]4)cc(N4CCOCC4)nn23)cn1 [Cmpd 42] = 100%

Measured Dmax (%) of CN1CCN(c2cc(NCc3nc4c(F)cccc4[nH]3)c3ncc(-c4cnn(C5CC5)c4)n3n2)CC1 [Cmpd 35] : 80%

What the record says about CN1CCN(c2cc(NCc3nc4cc(Cl)c(Cl)cc4[nH]3)c3ncc(-c4cn[nH]c4)n3n2)CC1 [Cmpd 60] : Dmax (%) is 100%

Noted for Cc1cc(-c2cnc3c(NCc4nc5cccc(Cl)c5[nH]4)cc(N4CCN(C)CC4)nn23)cs1 [Cmpd 84] : its Dmax (%) reads 80%

Entry FC(F)n1cc(-c2cnc3c(NCc4nc5cc(Cl)c(Cl)cc5[nH]4)cc(N4CCNCC4)nn23)cn1 [Cmpd 43] — recorded Dmax (%) = 100%

response.value for Clc1cccc2nc(CNc3cc(N4CCOCC4)nn4c(-c5ccsc5)cnc34)[nH]c12 [Cmpd 67] (field: Dmax (%)) = 85%

response.value for CN1CCN(c2cc(NCc3nc4c(F)c(F)ccc4[nH]3)c3ncc(-c4cnn(C5CC5)c4)n3n2)CC1 [Cmpd 38] (field: Dmax (%)) = 65%

----------
List of IC50 values.
Molecular target: CDK12 (Homo sapiens)
Test: Inhibition of cyclin-dependent kinase 12 (% enzyme activity at 1 uM and IC50)
Format: biochemical
Field: numeric (nM). Do not append units.

Below, 2 compounds whose answers are already recorded.
{"columns": ["compound", "unit.text", "IC50"],
 "data": [
  ["Fc1cccc2[nH]c(CNc3cc(N4CCOCC4)nn4c(-c5cnn(C(F)F)c5)cnc34)nc12 [Cmpd 52]", "nM", 359],
  ["Clc1cc2nc(CNc3cc(N4CCOCC4)nn4c(-c5cn[nH]c5)cnc34)[nH]c2cc1Cl [Cmpd 61]", "nM", 1320]
]}

In plain terms, CN1CCN(c2cc(NCc3nc4cc(Cl)c(Cl)cc4[nH]3)c3ncc(-c4ccsc4)n3n2)CC1 [Cmpd 63] has a documented IC50 of 2010

Reported IC50 of NC1CCN(c2cc(NCc3nc4cc(Cl)c(Cl)cc4[nH]3)c3ncc(-c4cnn(C(F)F)c4)n3n2)C1 (stereo not shown) [Cmpd 44] : 1420

Data point: Cc1ccnc2[nH]c(CNc3cc(N4CCN(C)CC4)nn4c(-c5ccsc5)cnc34)nc12 [Cmpd 75] ; IC50 = 38

Quick note, IC50 for CC(C)n1cc(-c2cnc3c(NCc4nc5cccc(Cl)c5[nH]4)cc(N4CCN(C)CC4)nn23)cn1 [Cmpd 17] landed at 919

Record Cc1ccnc2[nH]c(CNc3cc(N4CCN(C)CC4)nn4c(-c5cnn(C(F)F)c5)cnc34)nc12 [Cmpd 57] . Reported IC50: 54

Form field IC50, entry Clc1cc2nc(CNc3cc(N4CCOCC4)nn4c(-c5ccsc5)cnc34)[nH]c2cc1Cl [Cmpd 64] : 4250

// IC50 lookup, compound = CC(C)n1cc(-c2cnc3c(NCc4nc5c(F)cccc5[nH]4)cc(N4CCN(C)CC4)nn23)cn1 [Cmpd 26] , result: 1110

Entry CC(C)n1cc(-c2cnc3c(NCc4nc5c(F)cccc5[nH]4)cc(N4CCOCC4)nn23)cn1 [Cmpd 27] ; IC50 = 1080

The reported value for Clc1cccc2nc(CNc3cc(N4CCOCC4)nn4c(-c5ccsc5)cnc34)[nH]c12 [Cmpd 67] in terms of IC50 is 300

So for Cc1ccnc2[nH]c(CNc3cc(N4CCN(C)CC4)nn4c(-c5cnn(C(C)C)c5)cnc34)nc12 [Cmpd 20] , the logged IC50 turned out to be 531

----------
Tested on: CCNK
Test: CCNK degradation (DC50, Dmax)
Assay type: cell-based
Details: CCNK degradation
Dmax (%) listing for selected compounds.
Quick note: give the figure in %, leave out the unit.

Example results:
{"columns": ["compound", "test.system", "Dmax (%)"],
 "data": [
  ["CN1CCN(c2cc(NCc3nc4c(F)c(F)ccc4[nH]3)c3ncc(-c4ccsc4)n3n2)CC1 [Cmpd 78]", "CCNK", 80],
  ["CC(C)n1cc(-c2cnc3c(NCc4nc5c(F)c(F)ccc5[nH]4)cc(N4CCOCC4)nn23)cn1 [Cmpd 24]", "CCNK", 65],
  ["Cc1cc(-c2cnc3c(NCc4nc5c(F)cccc5[nH]4)cc(N4CCOCC4)nn23)cs1 [Cmpd 94]", "CCNK", 80],
  ["CN1CCN(c2cc(NCc3nc4cc(Cl)c(Cl)cc4[nH]3)c3ncc(-c4cnn(C(F)F)c4)n3n2)CC1(C)C [Cmpd 49]", "CCNK", 95],
  ["CN1CCC(Nc2cc(NCc3nc4cc(Cl)c(Cl)cc4[nH]3)c3ncc(-c4cnn(C(F)F)c4)n3n2)CC1 [Cmpd 46]", "CCNK", 100],
  ["CN1CCN(c2cc(NCc3nc4c(F)c(F)ccc4[nH]3)c3ncc(-c4cnn(C(F)F)c4)n3n2)CC1 [Cmpd 54]", "CCNK", 85],
  ["Cc1cc(-c2cnc3c(NCc4nc5cc(Cl)c(Cl)cc5[nH]4)cc(N4CCOCC4)nn23)cs1 [Cmpd 88]", "CCNK", 100],
  ["CN1CCN(c2cc(NCc3nc4c(F)c(F)ccc4[nH]3)c3ncc(-c4cnn(C)c4)n3n2)CC1 [Cmpd 5]", "CCNK", 65],
  ["Clc1cccc2nc(CNc3cc(N4CCNCC4)nn4c(-c5ccsc5)cnc34)[nH]c12 [Cmpd 68]", "CCNK", 90],
  ["Cc1cc(-c2cnc3c(NCc4nc5c(F)c(F)ccc5[nH]4)cc(N4CCN(C)CC4)nn23)cs1 [Cmpd 96]", "CCNK", 75]
]}

Pending compound:
Looking up N#Cc1cc(-c2cnc3c(NCc4nc5cc(Cl)c(Cl)cc5[nH]4)cc(N4CCOCC4)nn23)cs1 [Cmpd 80] , I found its Dmax (%) recorded as 95

----------
Molecular target: CDK12 (Homo sapiens, UniProt Q9NYV4)
Sequence (Q9NYV4 whole entry): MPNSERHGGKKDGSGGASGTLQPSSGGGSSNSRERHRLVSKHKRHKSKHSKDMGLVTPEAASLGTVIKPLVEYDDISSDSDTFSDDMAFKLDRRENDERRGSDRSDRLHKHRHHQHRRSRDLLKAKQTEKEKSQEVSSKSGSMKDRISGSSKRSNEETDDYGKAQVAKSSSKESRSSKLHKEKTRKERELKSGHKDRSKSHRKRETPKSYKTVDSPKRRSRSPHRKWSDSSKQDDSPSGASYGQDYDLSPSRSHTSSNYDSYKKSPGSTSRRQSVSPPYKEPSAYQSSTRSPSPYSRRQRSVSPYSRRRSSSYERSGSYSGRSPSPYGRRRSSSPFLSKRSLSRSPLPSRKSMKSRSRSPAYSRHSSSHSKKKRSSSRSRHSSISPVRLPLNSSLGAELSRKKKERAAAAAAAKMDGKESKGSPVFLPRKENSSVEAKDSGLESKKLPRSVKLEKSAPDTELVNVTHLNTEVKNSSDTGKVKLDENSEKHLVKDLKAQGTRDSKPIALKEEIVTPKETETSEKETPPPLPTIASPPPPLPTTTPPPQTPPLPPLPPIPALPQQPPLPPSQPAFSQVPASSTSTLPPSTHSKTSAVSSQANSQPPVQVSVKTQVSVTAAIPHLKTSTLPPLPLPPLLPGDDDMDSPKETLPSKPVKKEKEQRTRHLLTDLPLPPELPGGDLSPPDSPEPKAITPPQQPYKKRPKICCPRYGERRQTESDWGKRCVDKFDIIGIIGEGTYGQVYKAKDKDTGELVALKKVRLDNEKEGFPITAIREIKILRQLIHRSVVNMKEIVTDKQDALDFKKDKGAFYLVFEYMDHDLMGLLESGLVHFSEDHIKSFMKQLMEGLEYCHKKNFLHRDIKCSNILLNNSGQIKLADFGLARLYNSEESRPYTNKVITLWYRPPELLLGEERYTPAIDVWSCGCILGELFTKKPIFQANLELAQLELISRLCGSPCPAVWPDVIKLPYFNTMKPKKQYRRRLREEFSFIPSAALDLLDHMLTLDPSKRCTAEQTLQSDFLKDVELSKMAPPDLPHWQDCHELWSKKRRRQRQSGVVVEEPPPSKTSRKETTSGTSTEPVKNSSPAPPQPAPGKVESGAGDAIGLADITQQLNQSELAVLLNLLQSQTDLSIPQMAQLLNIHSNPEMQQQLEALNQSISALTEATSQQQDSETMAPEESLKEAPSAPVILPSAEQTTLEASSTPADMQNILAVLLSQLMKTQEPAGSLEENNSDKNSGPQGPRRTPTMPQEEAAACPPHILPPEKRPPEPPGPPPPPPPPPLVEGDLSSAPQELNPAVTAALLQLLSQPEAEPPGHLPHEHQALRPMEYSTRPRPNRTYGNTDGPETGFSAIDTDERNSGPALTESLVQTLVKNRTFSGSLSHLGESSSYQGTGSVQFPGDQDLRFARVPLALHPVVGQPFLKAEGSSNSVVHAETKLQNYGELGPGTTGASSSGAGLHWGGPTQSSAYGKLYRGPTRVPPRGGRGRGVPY
Sequence (O75909 whole entry partner): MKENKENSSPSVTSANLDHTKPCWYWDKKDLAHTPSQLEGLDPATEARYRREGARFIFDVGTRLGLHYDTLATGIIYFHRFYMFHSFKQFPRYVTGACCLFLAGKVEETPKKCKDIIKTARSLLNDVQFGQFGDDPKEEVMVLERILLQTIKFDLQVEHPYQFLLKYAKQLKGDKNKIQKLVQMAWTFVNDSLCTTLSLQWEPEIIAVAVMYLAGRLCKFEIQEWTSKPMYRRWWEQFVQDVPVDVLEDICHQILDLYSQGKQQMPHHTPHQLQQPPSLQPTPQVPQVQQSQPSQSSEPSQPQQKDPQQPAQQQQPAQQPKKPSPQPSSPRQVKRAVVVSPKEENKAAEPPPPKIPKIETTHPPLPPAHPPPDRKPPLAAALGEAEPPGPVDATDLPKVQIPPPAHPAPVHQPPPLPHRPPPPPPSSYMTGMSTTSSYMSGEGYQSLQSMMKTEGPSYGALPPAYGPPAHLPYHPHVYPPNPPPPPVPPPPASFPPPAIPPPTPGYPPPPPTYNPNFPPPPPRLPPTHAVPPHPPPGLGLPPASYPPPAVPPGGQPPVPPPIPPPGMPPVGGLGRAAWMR
Assay: Inhibition of cyclin-dependent kinase 12 (% enzyme activity at 1 uM and IC50)
Type: biochemical
Conditions: 1 uM compound
Each record here notes measured remaining activity at 1 µM.
State just the number; it will be interpreted in %.

A selection of reference data follows.
{"columns": ["entry.smiles", "unit.text", "remaining activity at 1 µM"],
 "data": [
  ["CN1CCN(c2cc(NCc3nc4cc(Cl)c(Cl)cc4[nH]3)c3ncc(-c4csc(C#N)c4)n3n2)CC1", "%", 80],
  ["Cc1cc(-c2cnc3c(NCc4nc5cc(Cl)c(Cl)cc5[nH]4)cc(N4CCN(C)CC4)nn23)cs1", "%", 82]
]}

In plain terms, N#Cc1cc(-c2cnc3c(NCc4nc5cc(Cl)c(Cl)cc5[nH]4)cc(N4CCOCC4)nn23)cs1 has a documented remaining activity at 1 µM of 75

// remaining activity at 1 µM lookup, molecule = CC(C)n1cc(-c2cnc3c(NCc4nc5c(F)cccc5[nH]4)cc(N4CCN(C)CC4)nn23)cn1 , result: 53

Entry CN1CCN(c2cc(NCc3nc4cc(Cl)c(Cl)cc4[nH]3)c3ncc(-c4cnn(C5CC5)c4)n3n2)CC1 ; remaining activity at 1 µM = 81
